- tested_system: Tiam1 PDZ domain (residues 841-930) (human, UniProt Q13009 841-930)
- Sequence (Q13009 841-930): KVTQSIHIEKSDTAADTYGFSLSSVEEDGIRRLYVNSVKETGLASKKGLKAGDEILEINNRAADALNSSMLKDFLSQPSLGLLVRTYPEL
- test_name: fluorescence polarisation
pKd: −log10 of the molar value. Ends that are not written are not given here. * marks the point of attachment. Dansyl = CN(C)c1cccc2c(S(=O)(=O)*)cccc12
pKd values by entry
readout: pKd

- Dansyl-SSRKEYYA [Model Tiam1-binding peptide, N-terminally dansylated]: < 4.00
- NKDKEYYV-OH (not fully specified (N-terminus)) [Neurexin-1 C-terminal peptide (residues 1470-1477), N-terminally dansylated]: < 4.00
